system tested: Alpha-synuclein (Homo sapiens)
assay explanation: Displacement of Thio-T from recombinant alpha-synuclein (unknown origin) expressed in Escherichia coli after 1.5 hrs by fluorescence assay
pKi: −log10 of the molar value.
// pKi lookup, one value per entry
readout: pKi

O=C1Nc2ccccc2/C1=C/C=C/c1ccc([N+](=O)[O-])cc1: 7.84
O=C1Nc2ccccc2/C1=C\c1ccc([N+](=O)[O-])cc1: 6.21
O=C1Nc2ccccc2/C1=C/c1ccc([N+](=O)[O-])cc1: 6.46
CN(C)c1ccc(/C=C2\C(=O)N(Cc3ccccc3)c3ccccc32)cc1: 6.84
COc1ccc(CN2C(=O)/C(=C\c3ccc(N(C)C)cc3)c3ccccc32)cc1 (mixture of isomers): 6.94

====

system tested: Alpha-synuclein (Homo sapiens)
assay explanation: Binding affinity to recombinant alpha-synuclein (unknown origin) expressed in Escherichia coli after 1 hr by scintillation counting
readout: Kd (nM)

O=C1/C(=C\C=C\c2ccc([N+](=O)[O-])cc2)c2ccccc2N1Cc1ccc(OCC[18F])cc1: 8.9

====

system tested: Alpha-synuclein (Homo sapiens, UniProt P37840)
assay explanation: Displacement of Thio-T from recombinant alpha-synuclein (unknown origin) expressed in Escherichia coli after 1.5 hrs by fluorescence assay
// Ki lookup, one value per entry
readout: Ki (nM)

CCOC(=O)N1C(=O)/C(=C\c2ccc(N(C)C)cc2)c2ccccc21 (mixture of isomers): 343
COc1ccc(CN2C(=O)/C(=C\C=C\c3ccc(N(C)C)cc3)c3ccccc32)cc1 (mixture of isomers): 54.6
COc1ccc(CN2C(=O)/C(=C\C=C\c3ccc([N+](=O)[O-])cc3)c3ccccc32)cc1: 12.9
COc1ccc(CN2C(=O)/C(=C/C=C/c3ccc([N+](=O)[O-])cc3)c3ccccc32)cc1: 81.9
COc1ccc(CN2C(=O)/C(=C\C=C\c3ccc(N(C)C)cc3)c3cccnc32)cc1 (mixture of isomers): 29.8
COc1ccc(CN2C(=O)/C(=C/C=C/c3ccc([N+](=O)[O-])cc3)c3ccccc32)cc1OC: 53.3
O=C1/C(=C\C=C\c2ccc([N+](=O)[O-])cc2)c2ccccc2N1Cc1ccc(OCCF)cc1: 2.1
CN(C)c1ccc(/C=C/C=C2\C(=O)N(Cc3ccccc3)c3ncccc32)cc1 (mixture of isomers): 68.3
CN(C)c1ccc(/C=C/C=C2\C(=O)Nc3ncccc32)cc1 (mixture of isomers): 11.5
CN(C)c1ccc(/C=C2\C(=O)N(c3ccccc3)c3ccccc32)cc1 (mixture of isomers): 290
CN(C)c1ccc(/C=C/C=C2\C(=O)N(C)c3ccccc32)cc1 (mixture of isomers): 63.7
O=C1/C(=C\C=C\c2ccc([N+](=O)[O-])cc2)c2ccccc2N1Cc1ccccc1: 25
CN(C)c1ccc(/C=C2\C(=O)N(C)c3ccccc32)cc1 (mixture of isomers): 508
CCOC(=O)N1C(=O)/C(=C\C=C\c2ccc(N(C)C)cc2)c2ccccc21 (mixture of isomers): 45.3
CN(C)c1ccc(/C=C/C=C2\C(=O)N(Cc3ccncc3)c3ccccc32)cc1: 92
CN(C)c1ccc(/C=C/C=C2\C(=O)N(Cc3ccc([N+](=O)[O-])cc3)c3ccccc32)cc1 (mixture of isomers): 4.2
O=C1Nc2ccccc2/C1=C\C=C\c1ccc([N+](=O)[O-])cc1: 211
CN(C)c1ccc(/C=C/C=C2\C(=O)N(Cc3ccccc3)c3ccccc32)cc1 (mixture of isomers): 40.9
COc1cccc(CN2C(=O)/C(=C/C=C/c3ccc([N+](=O)[O-])cc3)c3ccccc32)c1: 64.7
CN(C)c1ccc(/C=C/C=C2\C(=O)Nc3ccc(O)cc32)cc1 (mixture of isomers): 54
O=C1/C(=C\c2ccc([N+](=O)[O-])cc2)c2ccccc2N1Cc1ccccc1: 483
Nc1ccc(/C=C/C=C2\C(=O)Nc3ccccc32)cc1 (mixture of isomers): 44.8
COc1cccc(CN2C(=O)/C(=C\C=C\c3ccc([N+](=O)[O-])cc3)c3ccccc32)c1: 3.8
CN(C)c1ccc(/C=C2\C(=O)Nc3ncccc32)cc1 (mixture of isomers): 124
COc1ccc(CN2C(=O)/C(=C\C=C\c3ccc([N+](=O)[O-])cc3)c3ccccc32)cc1OC: 3.5
COc1ccc(/C=C/C=C2\C(=O)N(Cc3ccccc3)c3ccccc32)cc1 (mixture of isomers): 72.5
COc1ccc(/C=C/C=C2\C(=O)Nc3ccccc32)cc1 (mixture of isomers): 61.1
O=C1/C(=C\C=C\c2ccccc2)c2ccccc2N1Cc1ccccc1 (mixture of isomers): 227
COc1ccc(CN2C(=O)/C(=C\c3ccc(N(C)C)cc3)c3cccnc32)cc1 (mixture of isomers): 79.5
O=C1/C(=C/C=C/c2ccc([N+](=O)[O-])cc2)c2ccccc2N1Cc1ccccc1: 193
CN(C)c1ccc(/C=C2\C(=O)Nc3ccccc32)cc1 (mixture of isomers): 84.4
CN(C)c1ccc(/C=C2\C(=O)N(Cc3ccccc3)c3ncccc32)cc1 (mixture of isomers): 350
O=C1/C(=C/C=C/c2ccc([N+](=O)[O-])cc2)c2ccccc2N1Cc1ccc(OCCF)cc1: 76.1
CN(C)c1ccc(/C=C2\C(=O)N(Cc3ccncc3)c3ccccc32)cc1: 150
O=C1Nc2ccccc2/C1=C/C=C/c1ccccc1 (mixture of isomers): 207

====

Notes on Ki obtained with Amyloid-beta precursor protein (Homo sapiens, UniProt P05067).
Sequence (P05067 whole entry): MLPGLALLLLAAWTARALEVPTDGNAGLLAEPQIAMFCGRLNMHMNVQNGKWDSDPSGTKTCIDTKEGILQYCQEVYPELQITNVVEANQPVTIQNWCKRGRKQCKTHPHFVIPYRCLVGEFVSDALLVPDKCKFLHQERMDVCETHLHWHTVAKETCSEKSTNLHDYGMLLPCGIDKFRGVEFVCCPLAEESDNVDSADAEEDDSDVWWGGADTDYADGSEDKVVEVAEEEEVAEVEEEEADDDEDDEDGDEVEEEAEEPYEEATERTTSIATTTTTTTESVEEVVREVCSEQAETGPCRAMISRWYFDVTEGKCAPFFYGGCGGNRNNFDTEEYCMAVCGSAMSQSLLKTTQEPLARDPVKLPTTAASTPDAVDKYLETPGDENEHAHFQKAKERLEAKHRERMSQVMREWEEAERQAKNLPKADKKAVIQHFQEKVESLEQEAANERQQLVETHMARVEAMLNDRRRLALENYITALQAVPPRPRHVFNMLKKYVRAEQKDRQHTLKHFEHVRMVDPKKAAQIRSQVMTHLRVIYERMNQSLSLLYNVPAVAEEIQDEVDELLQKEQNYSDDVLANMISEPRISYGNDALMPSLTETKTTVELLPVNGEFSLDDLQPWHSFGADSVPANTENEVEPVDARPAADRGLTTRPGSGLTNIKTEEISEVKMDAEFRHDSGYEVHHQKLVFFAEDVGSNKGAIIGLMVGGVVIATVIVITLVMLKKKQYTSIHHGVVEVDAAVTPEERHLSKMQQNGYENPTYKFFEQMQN
readout: Ki

O=C1/C(=C\C=C\c2ccccc2)c2ccccc2N1Cc1ccccc1 (mixture of isomers): 703 nM
O=C1/C(=C\c2ccc([N+](=O)[O-])cc2)c2ccccc2N1Cc1ccccc1: 460 nM
COc1ccc(CN2C(=O)/C(=C\C=C\c3ccc([N+](=O)[O-])cc3)c3ccccc32)cc1: 131 nM
CCOC(=O)N1C(=O)/C(=C\c2ccc(N(C)C)cc2)c2ccccc21 (mixture of isomers): 140 nM
O=C1Nc2ccccc2/C1=C\C=C\c1ccc([N+](=O)[O-])cc1: 60 nM
COc1ccc(CN2C(=O)/C(=C\C=C\c3ccc([N+](=O)[O-])cc3)c3ccccc32)cc1OC: 73.6 nM
O=C1Nc2ccccc2/C1=C/c1ccc([N+](=O)[O-])cc1: 325 nM
COc1ccc(CN2C(=O)/C(=C/C=C/c3ccc([N+](=O)[O-])cc3)c3ccccc32)cc1: 138 nM
O=C1/C(=C/c2ccc([N+](=O)[O-])cc2)c2ccccc2N1Cc1ccccc1: 695 nM
CN(C)c1ccc(/C=C2\C(=O)N(c3ccccc3)c3ccccc32)cc1 (mixture of isomers): 179 nM
CN(C)c1ccc(/C=C/C=C2\C(=O)N(Cc3ccccc3)c3ccccc32)cc1 (mixture of isomers): 358 nM
O=C1Nc2ccccc2/C1=C/C=C/c1ccccc1 (mixture of isomers): 267 nM
CN(C)c1ccc(/C=C2\C(=O)N(Cc3ccccc3)c3ccccc32)cc1: 260 nM
COc1cccc(CN2C(=O)/C(=C\C=C\c3ccc([N+](=O)[O-])cc3)c3ccccc32)c1: 110 nM
CN(C)c1ccc(/C=C2\C(=O)Nc3ccccc32)cc1 (mixture of isomers): 91.6 nM
COc1ccc(CN2C(=O)/C(=C\c3ccc(N(C)C)cc3)c3ccccc32)cc1 (mixture of isomers): 251 nM
CN(C)c1ccc(/C=C/C=C2\C(=O)N(Cc3ccc(N)cc3)c3ccccc32)cc1 (mixture of isomers): 98.9 nM
CN(C)c1ccc(/C=C2\C(=O)Nc3ncccc32)cc1 (mixture of isomers): 40 nM

====

// pKi lookup, one value per entry
system tested: Microtubule-associated protein tau (Homo sapiens, UniProt P10636)
Sequence (P10636 whole entry): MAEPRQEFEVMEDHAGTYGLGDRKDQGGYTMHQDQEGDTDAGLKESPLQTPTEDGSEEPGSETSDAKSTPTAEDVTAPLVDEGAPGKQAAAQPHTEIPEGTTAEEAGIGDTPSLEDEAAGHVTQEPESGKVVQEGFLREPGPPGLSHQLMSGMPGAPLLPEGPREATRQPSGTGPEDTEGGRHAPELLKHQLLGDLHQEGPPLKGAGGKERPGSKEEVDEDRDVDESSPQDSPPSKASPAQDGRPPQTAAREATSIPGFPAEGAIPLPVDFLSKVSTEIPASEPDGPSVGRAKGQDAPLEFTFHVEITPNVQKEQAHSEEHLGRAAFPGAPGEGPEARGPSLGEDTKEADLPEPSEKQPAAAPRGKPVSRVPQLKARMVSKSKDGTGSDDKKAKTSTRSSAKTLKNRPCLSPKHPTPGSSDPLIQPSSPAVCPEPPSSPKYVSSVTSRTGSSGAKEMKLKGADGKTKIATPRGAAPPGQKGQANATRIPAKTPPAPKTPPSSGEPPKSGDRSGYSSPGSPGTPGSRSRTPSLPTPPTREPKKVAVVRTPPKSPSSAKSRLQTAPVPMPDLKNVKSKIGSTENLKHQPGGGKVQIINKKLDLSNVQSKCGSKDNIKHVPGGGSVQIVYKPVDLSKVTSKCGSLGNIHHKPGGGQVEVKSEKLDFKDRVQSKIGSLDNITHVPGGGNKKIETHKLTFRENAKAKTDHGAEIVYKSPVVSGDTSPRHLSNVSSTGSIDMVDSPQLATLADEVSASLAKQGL
assay explanation: Displacement of Thio-T from human recombinant tau (243 to 375) expressed in Escherichia coli BL21(DE3)RIL after 1.5 hrs by fluorescence assay
pKi: −log10 of the molar value.
readout: pKi

CN(C)c1ccc(/C=C/C=C2\C(=O)Nc3ccc(O)cc32)cc1 (mixture of isomers): 7.32
O=C1/C(=C\c2ccc([N+](=O)[O-])cc2)c2ccccc2N1Cc1ccccc1: 5.76
COc1ccc(CN2C(=O)/C(=C\C=C\c3ccc(N(C)C)cc3)c3cccnc32)cc1 (mixture of isomers): 6.69
CN(C)c1ccc(/C=C2\C(=O)N(Cc3ccccc3)c3ncccc32)cc1 (mixture of isomers): 6.07
CN(C)c1ccc(/C=C/C=C2\C(=O)Nc3ncccc32)cc1 (mixture of isomers): 7.45
CN(C)c1ccc(/C=C2\C(=O)Nc3ccc(O)cc32)cc1 (mixture of isomers): 6.67
COc1cccc(CN2C(=O)/C(=C\C=C\c3ccc([N+](=O)[O-])cc3)c3ccccc32)c1: 6.64
COc1ccc(CN2C(=O)/C(=C/C=C/c3ccc([N+](=O)[O-])cc3)c3ccccc32)cc1: 6.50
O=C1/C(=C/C=C/c2ccc([N+](=O)[O-])cc2)c2ccccc2N1Cc1ccccc1: 6.23
CN(C)c1ccc(/C=C/C=C2\C(=O)N(c3ccccc3)c3ccccc32)cc1 (mixture of isomers): 6.33
CN(C)c1ccc(/C=C2\C(=O)Nc3ncccc32)cc1 (mixture of isomers): 6.72
COc1ccc(CN2C(=O)/C(=C/C=C/c3ccc([N+](=O)[O-])cc3)c3ccccc32)cc1OC: 6.20
CN(C)c1ccc(/C=C/C=C2\C(=O)N(Cc3ccncc3)c3ccccc32)cc1: 6.73
CN(C)c1ccc(/C=C/C=C2\C(=O)N(Cc3ccc(N)cc3)c3ccccc32)cc1 (mixture of isomers): 6.88
CCOC(=O)N1C(=O)/C(=C\C=C\c2ccc(N(C)C)cc2)c2ccccc21 (mixture of isomers): 6.58
Nc1ccc(/C=C/C=C2\C(=O)Nc3ccccc32)cc1 (mixture of isomers): 7.42
O=C1Nc2ccccc2/C1=C/C=C/c1ccc([N+](=O)[O-])cc1: 7.57
O=C1/C(=C/C=C/c2ccc([N+](=O)[O-])cc2)c2ccccc2N1Cc1ccc(OCCF)cc1: 6.34
O=C1/C(=C\C=C\c2ccc([N+](=O)[O-])cc2)c2ccccc2N1Cc1ccc(OCCF)cc1: 7.10
O=C1/C(=C/c2ccc([N+](=O)[O-])cc2)c2ccccc2N1Cc1ccccc1: 5.85
CCOC(=O)N1C(=O)/C(=C\c2ccc(N(C)C)cc2)c2ccccc21 (mixture of isomers): 5.95
O=C1Nc2ccccc2/C1=C/c1ccc([N+](=O)[O-])cc1: 6.44
COc1ccc(CN2C(=O)/C(=C\C=C\c3ccc([N+](=O)[O-])cc3)c3ccccc32)cc1OC: 6.82
O=C1Nc2ccccc2/C1=C\c1ccc([N+](=O)[O-])cc1: 6.28
O=C1Nc2ccccc2/C1=C\C=C\c1ccc([N+](=O)[O-])cc1: 6.68
CN(C)c1ccc(/C=C/C=C2\C(=O)N(C)c3ccccc32)cc1 (mixture of isomers): 6.64
CN(C)c1ccc(/C=C/C=C2\C(=O)N(Cc3ccccc3)c3ccccc32)cc1 (mixture of isomers): 6.43
CN(C)c1ccc(/C=C2\C(=O)N(c3ccccc3)c3ccccc32)cc1 (mixture of isomers): 6.10
COc1ccc(CN2C(=O)/C(=C\c3ccc(N(C)C)cc3)c3cccnc32)cc1 (mixture of isomers): 6.07
CN(C)c1ccc(/C=C/C=C2\C(=O)Nc3ccccc32)cc1 (mixture of isomers): 7.27
CN(C)c1ccc(/C=C2\C(=O)N(C)c3ccccc32)cc1 (mixture of isomers): 6.21
CN(C)c1ccc(/C=C2\C(=O)N(Cc3ccccc3)c3ccccc32)cc1: 6.10
CN(C)c1ccc(/C=C/C=C2\C(=O)N(Cc3ccccc3)c3ncccc32)cc1 (mixture of isomers): 6.59
COc1ccc(CN2C(=O)/C(=C\c3ccc(N(C)C)cc3)c3ccccc32)cc1 (mixture of isomers): 6.36
CN(C)c1ccc(/C=C2\C(=O)Nc3ccccc32)cc1 (mixture of isomers): 6.58
